measure-name: melting point

>>> value_measured("Cc1ccccc1C(=O)/N=c1/sc2cc(F)cc(F)c2n1CC1CC1")
"146 to 148 °C"
>>> value_measured("CCOc1ccc(C(F)(F)F)cc1C(=O)/N=c1\\sc(C(C)(C)C)c(C)n1CC1CC1")
"140 to 142 °C"
>>> value_measured("Cc1c(I)cccc1C(=O)/N=c1\\cc(C(C)(C)C)n(C)n1CC1CC1")
"138 to 140 °C"
>>> value_measured("COc1ccc(Cl)cc1C(=O)/N=c1\\sc(C(C)(C)C)c(C)n1C")
"177 to 179 °C"

The record that follows has no melting point shown yet.
Problem: melting point for COCCn1c(C)c(C(C)(C)C)s/c1=N\C(=O)c1cccc(OC(F)(F)C(F)F)c1 ?
Solution: 114 to 116 °C
